# protein stability index values compiled below
B1: FAM164C (parent)
chain: YPHCTGISQQDPESDSQGQGNGLF

Variants of: B1
Assay: protein stability index of a GFP-peptide fusion (GPS, HEK-293T) (PSI 1-6); higher = more stable;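 further: lentivirally expressed fusions sorted by FACS into six bins by GFP to DsRed ratio, PSI derived from sequencing read proportions per bin multiplied by bin number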
Conditions: c terminus: a fixed tail appended
Note: the reply should be a number with no unit written.

variant_annotation=Q19K numeric_result=3.85
variant_annotation=D11A numeric_result=3.66
variant_annotation=G6V numeric_result=4.17
variant_annotation=G6D numeric_result=4.23
variant_annotation=T5A numeric_result=3.46
variant_annotation=F24M numeric_result=4.55
variant_annotation=P2S numeric_result=4.65
variant_annotation=P12M numeric_result=3.6

Let me know recorded protein stability index for G22T , thanks.
3.65

Let me know recorded protein stability index for P2G , thanks.
4.47

Let me know recorded protein stability index for S16W , thanks.
2.76
